Recorded values, source PubChem BioAssay (NCI).

# GI50 values compiled below
- System: HL-60(TB) leukemia
- assay method text: NCI tumour cell line growth inhibition, 48 h

CC1=C(CCCOC(=O)NCCCl)C2=C(C)C3(CC3)[C@@](C)(O)C(=O)C2=C1
4.57 µM
CCOC(=O)c1cc(-c2ccc([N+](=O)[O-])cc2)n(-c2ccc(C(=O)O)c(O)c2)c1C
4.94 µM
COc1ccc(CNC(=O)COc2ccc(/C=N/Nc3nc4ccccc4s3)cc2)cc1
> 100 µM

Next compound, please.
# assay system HL-60(TB) leukemia: give GI50 of "CC1=C2[C@@H](CC1)[C@]1(C)O[C@@](C(C)C)(C[C@H]1OC(=O)[C@H](C)O)[C@H]2OC(=O)/C=C/c1ccccc1"
13.5 µM
